# Species on record: Homo sapiens
# protocol.details: Inhibition of 1 uM ABA-induced Increase in intracellular cAMP level in human granulocytes at 50 uM incubated for 1 min at 25 degC
# Type: functional, cell-based
Activity calls are given as the source filed them. The calls are words filed in the database; no cut-off is given here.
Form entry, call: pick from Y for active, N for inactive

Field: example entries. Status: answers known.
molecule	label.class
COC(=O)/C=C(C)\C=C\c1c(C)cc(OC(C)=O)c(C)c1C	N
CC1=CC(=O)CC(C)(C)C1(O)/C=C/C(C)=C\C(=O)OCC(=O)OCC(=O)O (racemic)	Y
COC(=O)/C=C(C)\C=C\C1(O)C(C)=CC(O)CC1(C)C (racemic)	N
CC(=O)/C=C/C12OC1(C)CCCC2(C)C (racemic)	N
CC1=CC(=O)CC(C)(C)C1(O)/C=C/C(C)=C\C(=O)Nc1ccc(N)cc1 (racemic)	N
CC(=C/C(=O)O)/C=C/C1(O)C(C)(C)CC(=O)C2OC21C (racemic)	Y

Now let's try a different one.
Query: Give the logged outcome of this assay for the following molecule: CC1=CC(O)CC(C)(C)C1(O)/C=C/C(C)=C\C(=O)OCC(=O)OC(C)(C)C (racemic)
Result: N

Values were extracted from ChEMBL document CHEMBL3352196.
